target: T1, human melanocortin receptor subtype 5 (hMC5-R) (human, UniProt P33032 1-325); assay: [125I]-NDP-α-MSH competition, membranes
T1 construct: whole, on cells; membranes of CHO-K1 cells
T1 sequence (P33032 whole entry): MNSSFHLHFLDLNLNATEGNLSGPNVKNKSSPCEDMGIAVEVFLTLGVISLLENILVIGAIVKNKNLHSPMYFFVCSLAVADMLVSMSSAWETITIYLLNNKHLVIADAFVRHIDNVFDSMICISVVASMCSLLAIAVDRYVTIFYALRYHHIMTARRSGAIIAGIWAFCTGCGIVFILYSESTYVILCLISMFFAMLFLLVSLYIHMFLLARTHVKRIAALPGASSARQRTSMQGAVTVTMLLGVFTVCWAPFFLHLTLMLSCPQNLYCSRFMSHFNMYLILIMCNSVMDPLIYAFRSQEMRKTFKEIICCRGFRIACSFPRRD
Bridge positions count the residues as written; N and C are the ends. Square brackets hold non-standard residues; d marks the D form. Ends that are not written are not given here. d2Nal = N[C@H](Cc1ccc2ccccc2c1)C(=O)O; Aic = NC1(C(=O)O)Cc2ccccc2C1; Pen = CC(C)(S)[C@H](N)C(=O)O; Nle = CCCC[C@H](N)C(=O)O
Parameter Ki: see the listing below.
Write the number in nM without appending the unit.

Solved cases below.
- binder: "[Nle]GC[dA]H[dF]RW[Pen]-NH2 (disulfide 3-9; also: N-terminal hydantoin: C(O) bridges X1 N-terminal N and G2 backbone N, bridge at N via C(O), other end not in the chain) [Hydantoin(C(O)-(Nle-Gly))-c(Cys-D-Ala-His-D-Phe-Arg-Trp-Pen)-NH2]"
  assay.result: 27.1
- binder: "XCAHFRWCXXYGRKKRRQRRR (N-terminal Ac; Nle at 1; D-Ala at 3; D-Phe at 5; Doc at 9 and 10; disulfide Cys2-Cys8; C-terminal NH2) [Ac-Nle-c(Cys-D-Ala-His-D-Phe-Arg-Trp-Cys)-(Doc)2-Tyr-Gly-Arg-Lys-Lys-Arg-Arg-Gln-Arg-Arg-Arg-NH2]"
  assay.result: 118
- binder: "[Nle]GCEH[dF]RWC-NH2 (disulfide 3-9; also: N-terminal hydantoin: C(O) bridges X1 N-terminal N and G2 backbone N, bridge at N via C(O), other end not in the chain) [Hydantoin(C(O)-(Nle-Gly))-c(Cys-Glu-His-D-Phe-Arg-Trp-Cys)-NH2]"
  assay.result: 67.8

Ki lookup needed for D[Aic][d2Nal]RWK-NH2 (lactam 1-6; also: hydantoin ring: N-terminal N of Asp1 and backbone N of residue 2 bridged by one C(O), bridge at N via C(O), other end not in the chain) [c[Hydantoin(C(O)-(Asp-Aic))-D-2-Nal-Arg-Trp-Lys]-NH2] , thanks.
1160
